Biological target: His-hMAGL (recombinant polyhistidine tagged human MAGL protein) (Homo sapiens)
Construct: made in house; host or cells: E. coli BL21(DE3)
Sequence (Q99685 whole entry): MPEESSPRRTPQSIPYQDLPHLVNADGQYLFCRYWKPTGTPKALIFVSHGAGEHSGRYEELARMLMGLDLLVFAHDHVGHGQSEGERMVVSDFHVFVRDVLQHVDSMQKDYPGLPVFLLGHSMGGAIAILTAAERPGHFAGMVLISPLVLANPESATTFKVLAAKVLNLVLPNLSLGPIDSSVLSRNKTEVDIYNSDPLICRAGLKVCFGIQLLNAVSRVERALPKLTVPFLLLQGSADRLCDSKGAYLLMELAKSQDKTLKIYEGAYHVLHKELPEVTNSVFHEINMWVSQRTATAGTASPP
Assay: Measurement of MAGL inhibitory activity (arachidonic acid production from 2-arachidonylglycerol, RapidFire-mass spectrometry)
Format: biochemical
Settings: MAGL inhibitory rate at 10 μM test compound; 60 min preincubation with His-hMAGL, 2-arachidonylglycerol substrate, 10 min reaction at room temperature
For each record, write down the corresponding inhibition at 10 µM.
Answers are plain numbers, in %.

Example cases with answers are listed next.
compound=O=C1COc2cc(F)c(C(=O)N3CCC(COC4CCC(F)(F)CC4)CC3)cc2N1 units=% quantitative_readout=97
compound=O=C1COc2cc(F)c(C(=O)N3CC(COc4ccc(OCC(F)(F)F)cc4)C3)cc2N1 units=% quantitative_readout=99
compound=O=C1COc2cc(F)c(C(=O)N3CC(CC(F)(F)c4ccc(F)cc4Cl)C3)cc2N1 units=% quantitative_readout=102
compound="CC(Oc1ccc(F)c(F)c1)C1CN(C(=O)c2cc3c(cc2F)OCC(=O)N3)C1 (centres unmarked)" units=% quantitative_readout=99
compound=O=C1COc2ccc(C(=O)N3CCC(COc4ccc(Cl)nc4)CC3)cc2N1 units=% quantitative_readout=90
compound=Cc1cc(OCC2CN(C(=O)c3cc4c(cc3F)OCC(=O)N4)C2)ccc1Cl units=% quantitative_readout=100

List inhibition at 10 µM for every entry below, keeping the order given.
1. O=C1COc2cc(F)c(C(=O)N3CC(COc4ccc5c(c4)CCO5)C3)cc2N1
2. O=C1COc2cc(F)c(C(=O)N3CC(COc4ccc5scnc5c4)C3)cc2N1
3. O=C1COc2cc(F)c(C(=O)N3CC(COc4ccc5c(c4Br)CCCC5)C3)cc2N1
4. Cc1cc(-c2ccc(OCC3CN(C(=O)c4cc5c(cc4F)OCC(=O)N5)C3)c(F)c2)ccn1
5. O=C1COc2ncc(C(=O)N3CCC(COc4ccccc4Cl)CC3)cc2N1

Result:
101
100
98
101
100

List inhibition at 10 µM for every entry below, keeping the order given.
1. O=C1COc2cc(F)c(C(=O)N3CC(COc4ccc(N5CC(F)C5)cc4F)C3)cc2N1
2. Cc1nc2c(OCC3CCN(C(=O)c4cc5c(cc4F)OCC(=O)N5)CC3)cccc2s1
3. N#Cc1cc(Cl)ccc1OCC1CN(C(=O)c2cc3c(cc2F)OCC(=O)N3)C1
4. O=C1COc2cc(F)c(C(=O)N3CCC(COC4CCCCC4)CC3)cc2N1

Result:
[100, 98, 102, 100]

List inhibition at 10 µM for every entry below, keeping the order given.
1. O=C1Cc2ccc(C(=O)N3CCC(COc4ccccc4Cl)CC3)cc2N1
2. CC(C)(C)c1ccc(OCC2CN(C(=O)c3cc4c(cc3F)OCC(=O)N4)C2)c(Cl)c1

Result:
1. 100
2. 99
